Biological target: T1, recombinant human TLR4/MD2 (rhTLR4/MD2), R&D Systems cat no: 3146-TM/CF (human, UniProt O00206 24-631; Q9Y6Y9 17-160, limits assumed)
T1 construct: Bought protein, coated on ELISA plates
T1 sequence (O00206 24-631 limits assumed, chain 1 of 2): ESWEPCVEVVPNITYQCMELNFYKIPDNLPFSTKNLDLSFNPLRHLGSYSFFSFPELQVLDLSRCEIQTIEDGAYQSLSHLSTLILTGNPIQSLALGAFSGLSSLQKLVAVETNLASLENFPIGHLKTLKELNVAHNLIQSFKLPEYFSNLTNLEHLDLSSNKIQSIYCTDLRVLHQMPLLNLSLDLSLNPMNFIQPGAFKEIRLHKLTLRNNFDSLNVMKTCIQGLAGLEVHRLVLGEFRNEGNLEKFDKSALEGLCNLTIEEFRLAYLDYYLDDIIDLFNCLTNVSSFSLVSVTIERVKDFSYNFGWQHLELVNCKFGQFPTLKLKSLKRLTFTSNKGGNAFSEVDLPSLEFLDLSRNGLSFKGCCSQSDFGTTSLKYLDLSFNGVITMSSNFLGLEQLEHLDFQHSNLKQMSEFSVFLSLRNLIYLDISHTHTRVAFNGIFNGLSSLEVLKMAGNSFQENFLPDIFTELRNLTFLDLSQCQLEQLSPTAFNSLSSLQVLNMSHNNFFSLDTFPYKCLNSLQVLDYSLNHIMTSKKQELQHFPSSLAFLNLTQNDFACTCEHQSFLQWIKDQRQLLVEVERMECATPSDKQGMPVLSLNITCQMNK
T1 sequence (Q9Y6Y9 17-160 limits assumed, chain 2 of 2): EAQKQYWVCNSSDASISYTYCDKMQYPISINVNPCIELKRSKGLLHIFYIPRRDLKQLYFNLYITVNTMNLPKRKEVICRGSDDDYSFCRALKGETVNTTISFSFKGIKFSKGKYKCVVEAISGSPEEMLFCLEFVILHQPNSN
Assay: ELISA: TLR coated at 2 ug/ml, periplasmic extract of the clone, anti-VHH detection, OD against no-Nanobody control
attribute_measured: binding result

>  <binder>
133-F12 (VHH, not shown: C-terminal c-myc tag and (His)6 tag coded by the vector) VHH: EVQLVESGGGLVQPGGSLRLSCAASGSIFSINDMGWFRQAPGKEREHVALIRFKDGSIYYADSVKGRFTISRDNAKNTVYLQMNSLKPEDTAVYYCAAKTGTSFVCWGQGTQVTVSS

>  <assay_result>
binds

$$$$
>  <binder>
107-A7 (VHH, not shown: C-terminal c-myc tag and (His)6 tag coded by the vector) VHH: EVQLVESGGGLVQAGGSLRLSCVASGRTLSTVNMGWFRQAPGKERDIVARISGSSVSTYYAESVRGRFTISRDNAKNTVYLQMNSLRPEDTGVYYCVADSPGGRSYEYWGQGTQVTVSS

>  <assay_result>
binds

$$$$
